# targetEntity: Intestinal-type alkaline phosphatase (Bos taurus)
# methodSummary: Inhibition of bovine intestinal alkaline phosphatase assessed as residual enzyme activity at 0.1 mM in presence of 1% DMSO at pH 10.4 at 37 degC relative to untreated control
quantityKind: Activity (%)

* [O-][s+]1cc(Oc2ccc(Cl)cc2)c2ccccc21 (stereo not drawn) | 122
* N#Cc1c(-c2ccccc2)sc2ccccc12 | 76
* N#Cc1ccccc1-c1sc2ccccc2c1N1CCOCC1 | 107
* CN(C)c1ccc(-c2sc3ccccc3c2C#N)cc1 | 82
* COc1ccc(-c2sc3ccccc3c2C(=O)c2cc(OC)c(OC)c(OC)c2)c([N+](=O)[O-])c1 | 124
* N#Cc1cc2ccccc2s1 | 103
* N#Cc1ccccc1-c1sc2ccccc2c1C(=O)c1ccccc1 | 91
* COc1c(-c2ccc3ccccc3c2)sc2ccccc12 | 102
* O=[N+]([O-])c1cc(Cl)ccc1-c1cc2ccccc2s1 | 107
* O=Cc1c(-c2cccnc2)sc2ccccc12 | 119
* [O-][s+]1cc(N2CCCCC2)c2ccccc21 (stereo not drawn) | 110
* COc1ccc(-c2sc3ccccc3c2CN)c(N)c1 | 103
* c1ccc(Oc2csc3ccccc23)cc1 | 104
